molecular target: Serine/threonine-protein kinase pim-2 (Homo sapiens); experiment: Inhibition of PIM2 in human U2OS cells assessed as phosphorylation of BAD; assay type: cell-based
Sequence (Q9P1W9 whole entry): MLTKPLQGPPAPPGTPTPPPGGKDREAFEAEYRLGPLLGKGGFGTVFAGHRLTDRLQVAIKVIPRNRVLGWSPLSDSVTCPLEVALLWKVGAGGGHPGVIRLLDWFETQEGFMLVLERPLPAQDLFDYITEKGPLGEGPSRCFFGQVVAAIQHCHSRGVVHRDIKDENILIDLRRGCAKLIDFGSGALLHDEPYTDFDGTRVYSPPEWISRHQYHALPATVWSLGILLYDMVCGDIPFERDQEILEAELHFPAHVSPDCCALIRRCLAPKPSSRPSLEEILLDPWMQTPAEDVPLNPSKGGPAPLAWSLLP
pIC50: −log10 of the molar value.
VALUE_KIND: pIC50

>>> result("Nc1nnc(-c2ccc3[nH]cc(-c4cncc(NC5CCCCC5)n4)c3c2)s1")
5.59
>>> result("Nc1nnc(-c2ccc3[nH]cc(-c4cccc(NC5CCCC5)n4)c3c2)s1")
5.51
>>> result("CC(C)Oc1cncc(-c2c[nH]c3ccc(-c4nnc(N)s4)cc23)n1")
5.65
>>> result("CC(C)Nc1cccc(-c2c[nH]c3ccc(-c4nnc(N)s4)cc23)n1")
5.66
